Origin of measurements: ChEMBL document CHEMBL1157589

Parameter: MIC80. Scope: all listed entries.
- System: Trichophyton mentagrophytes
- METHOD SUMMARY: Antifungal activity against Trichophyton mentagrophytes 445 after 72 hrs by microdilution method
- Assay type: functional
- RECORDED CONDITIONS: Trichophyton mentagrophytes, 445, 72 h
Answer format: numeric, µM implied, no suffix.

For orientation, consider the following solved cases.
CC(=O)OCC/C=C1/C=C(c2ccc(Br)cc2)C(=O)O1 | 15.6
O=C1OC(COc2ccc(C(=O)O)cc2)C=C1c1ccc(Br)cc1 (stereo unspecified) | 0.97
O=C1OCC=C1c1ccc(Br)cc1 | 250
O=C1O/C(=C\CCO)C=C1c1ccc(Br)cc1 | 31.2
OC(Cn1cncn1)(Cn1cncn1)c1ccc(F)cc1F [FLUCONAZOLE] | 17

# input compound: COC(=O)c1ccc(OCC2C=C(c3ccc(Br)cc3)C(=O)O2)cc1 (stereo unspecified) ; wanted: its MIC80
3.9

Quick one: O=C1OC(COc2ccccc2)C=C1c1ccc(Br)cc1 (stereo unspecified)
1.95

// next record O=C1OC(COc2cccc(Br)c2)C=C1c1ccc(Br)cc1 (stereo unspecified)
1.95

What do you get for COCC1C=C(c2ccc(Br)cc2)C(=O)O1 (stereo unspecified) ?
31.2

// same read-out, input: CCOCC1C=C(c2ccc(Br)cc2)C(=O)O1 (stereo unspecified)
15.6

Now this one: `C=C1C=C(c2ccc(Br)cc2)C(=O)O1`
1.95

Can you check O=C1OC(COc2ccc(I)cc2)C=C1c1ccc(Br)cc1 (stereo unspecified) next?
1.95

Repeat with `O=C1O/C(=C\CCCO)C=C1c1ccc(Br)cc1`
62.5

----------
// reported MIC80 for each item listed
- Tested on: Nakaseomyces glabratus
- METHOD SUMMARY: Antifungal activity against Candida glabrata 20/I after 48 hrs by microdilution method
- Format: functional
State just the number; it will be interpreted in µM.

O=C1OC(COc2ccc(I)cc2)C=C1c1ccc(Br)cc1 (stereo not given) | 3.9
O=C1OC(COc2ccc(O)cc2)C=C1c1ccc(Br)cc1 (stereo not given) | 1.95
O=C1OC(COc2ccc(C(=O)O)cc2)C=C1c1ccc(Br)cc1 (stereo not given) | 1.95
O=C1O/C(=C\CCO)C=C1c1ccc(Br)cc1 | 250
O=C1O/C(=C\CO)C=C1c1ccc(Br)cc1 | 62.5

Endpoint output: MIC80 of COC(=O)c1ccc(OCC2C=C(c3ccc(Br)cc3)C(=O)O2)cc1 (stereo not given) . Value?
3.9

// repeat for CCOCC1C=C(c2ccc(Br)cc2)C(=O)O1 (stereo not given) and report
62.5

----------
- Tested on: Candida tropicalis
- METHOD SUMMARY: Antifungal activity against Candida tropicalis 156 after 24 hrs by microdilution method
- Format: functional
- RECORDED CONDITIONS: Candida tropicalis, 156, 24 h
PROPERTY LABEL: MIC80 (µM)
Enter your answer as a number in µM; do not include the unit.

O=C1OC(COc2cccc(C(=O)O)c2)C=C1c1ccc(Br)cc1 (centres undefined) | 7.81
CC(=O)OC/C=C1/C=C(c2ccc(Br)cc2)C(=O)O1 | 31.2
CC(=O)OCC1C=C(c2ccc(Br)cc2)C(=O)O1 (centres undefined) | 7.81

I would be grateful if you could share the reported MIC80 for `O=C1OCC=C1c1ccc(Br)cc1` .
250

Cool, now CCOCC1C=C(c2ccc(Br)cc2)C(=O)O1 (centres undefined)
250

Try this compound next: O=C1OC(COc2cccc(Br)c2)C=C1c1ccc(Br)cc1 (centres undefined)
7.81

Input O=C1OC(COc2ccc(O)cc2)C=C1c1ccc(Br)cc1 (centres undefined)
7.81

What about this compound? `OC(Cn1cncn1)(Cn1cncn1)c1ccc(F)cc1F`
3

What about this compound? O=C1OC(COc2ccc(I)cc2)C=C1c1ccc(Br)cc1 (centres undefined)
15.6

Continue with O=C1OC(COc2ccccc2)C=C1c1ccc(Br)cc1 (centres undefined)
7.81

Now consider `O=C1O/C(=C\CCO)C=C1c1ccc(Br)cc1` .
125

Try `O=C1O/C(=C\CO)C=C1c1ccc(Br)cc1` next.
15.6

Also O=C1OC(COc2ccc(C(=O)O)cc2)C=C1c1ccc(Br)cc1 (centres undefined) , if possible.
3.9

----------
MIC80 overview
- System: Pichia kudriavzevii
- METHOD SUMMARY: Antifungal activity against Candida krusei E28 after 48 hrs by microdilution method
- Type: functional
- RECORDED CONDITIONS: E28, 48 h

COC(=O)/C=C1\C=C(c2ccc(Br)cc2)C(=O)O1 | > 125 µM
CC(=O)OCC/C=C1/C=C(c2ccc(Br)cc2)C(=O)O1 | > 500 µM

Quick one: MIC80 for `O=C1O/C(=C\COC(=O)c2ccccc2)C=C1c1ccc(Br)cc1` ?
> 500 µM

----------
- Test system: Clavispora lusitaniae
- METHOD SUMMARY: Antifungal activity against Candida lusitaniae 2446/I after 48 hrs by microdilution method
- Assay type: functional
Catalogue of compounds with associated MIC80

Previously resolved entries follow.
O=C1O/C(=C\c2ccccc2)C=C1c1ccc(Br)cc1 | > 125 µM
C/C=C1/C=C(c2ccc(Br)cc2)C(=O)O1 | > 500 µM
COC(=O)/C=C1\C=C(c2ccc(Br)cc2)C(=O)O1 | > 125 µM
O=C1O/C(=C\CCCO)C=C1c1ccc(Br)cc1 | > 500 µM
O=C1O/C(=C\COC(=O)c2ccccc2)C=C1c1ccc(Br)cc1 | > 500 µM

In the following, a different compound is considered.
For `CC(=O)OCC/C=C1/C=C(c2ccc(Br)cc2)C(=O)O1` , what is its reported MIC80?
> 500 µM

----------
- Test system: Candida parapsilosis
- METHOD SUMMARY: Antifungal activity against Candida parapsilosis ATCC 22019 after 48 hrs by microdilution method
- Format: functional
- RECORDED CONDITIONS: Lodderomyces parapsilosis, ATCC 22019, 48 h
PROPERTY LABEL: MIC80

Recorded results for 4 molecules are shown here.
O=C1O/C(=C\CCCO)C=C1c1ccc(Br)cc1 | > 500 µM
O=C1O/C(=C\c2ccccc2)C=C1c1ccc(Br)cc1 | > 125 µM
COC(=O)/C=C1\C=C(c2ccc(Br)cc2)C(=O)O1 | > 125 µM
C/C=C1/C=C(c2ccc(Br)cc2)C(=O)O1 | > 500 µM

I'm curious: which MIC80 was measured for `O=C1O/C(=C\COC(=O)c2ccccc2)C=C1c1ccc(Br)cc1` tested on Candida parapsilosis?
> 500 µM

Repeat for the following molecule: `CC(=O)OCC/C=C1/C=C(c2ccc(Br)cc2)C(=O)O1`
> 500 µM

Input O=C1OC(COc2ccc(I)cc2)C=C1c1ccc(Br)cc1 (configuration not stated)
> 500 µM

----------
- Tested on: Trichophyton mentagrophytes
- METHOD SUMMARY: Antifungal activity against Trichophyton mentagrophytes 445 after 72 hrs by microdilution method
- Assay type: functional
- RECORDED CONDITIONS: Trichophyton mentagrophytes, 445, 72 h
PROPERTY LABEL: MIC80 (µM)
Reply with just the number (in µM).

C/C=C1/C=C(c2ccc(Br)cc2)C(=O)O1 | 31.2

Report MIC80 for `CC(=O)OC/C=C1/C=C(c2ccc(Br)cc2)C(=O)O1` please.
7.81

Try this compound too: O=C1OC(COc2cccc(C(=O)O)c2)C=C1c1ccc(Br)cc1 (stereo not drawn)
0.97

// repeat for COc1ccc(OCC2C=C(c3ccc(Br)cc3)C(=O)O2)cc1 (stereo not drawn) and report
1.95

Now this one: O=C1OC(COc2ccc(O)cc2)C=C1c1ccc(Br)cc1 (stereo not drawn)
1.95

----------
- Test system: Nakaseomyces glabratus
- METHOD SUMMARY: Antifungal activity against Candida glabrata 20/I after 48 hrs by microdilution method
- Assay type: functional
PROPERTY LABEL: MIC80

Given `COC(=O)/C=C1\C=C(c2ccc(Br)cc2)C(=O)O1` , state its recorded MIC80.
> 125 µM

Next: `CC(=O)OCC/C=C1/C=C(c2ccc(Br)cc2)C(=O)O1`
> 500 µM

Check `O=C1O/C(=C\CCCO)C=C1c1ccc(Br)cc1` too.
> 500 µM

----------
Item-by-item account of MIC80
- Test system: Candida tropicalis
- METHOD SUMMARY: Antifungal activity against Candida tropicalis 156 after 24 hrs by microdilution method
- Type: functional
- RECORDED CONDITIONS: Candida tropicalis, 156, 24 h

Solved entries:
O=C1O/C(=C\COC(=O)c2ccccc2)C=C1c1ccc(Br)cc1 | > 500 µM
CC(=O)OCC/C=C1/C=C(c2ccc(Br)cc2)C(=O)O1 | > 500 µM
COC(=O)/C=C1\C=C(c2ccc(Br)cc2)C(=O)O1 | > 125 µM

Which MIC80 reading was recorded for the compound `C/C=C1/C=C(c2ccc(Br)cc2)C(=O)O1` ?
> 500 µM

`O=C1O/C(=C\CCCO)C=C1c1ccc(Br)cc1` , same question.
> 500 µM

Lookup `O=C1O/C(=C\c2ccccc2)C=C1c1ccc(Br)cc1`
> 125 µM
